# TARGET: T1, mouse BCMA with a His tag (ACROBiosystems, Catalog No.: BCA-M52H3) (mouse)
# T1 construct: Bought His-tagged recombinant protein
# T1 chain: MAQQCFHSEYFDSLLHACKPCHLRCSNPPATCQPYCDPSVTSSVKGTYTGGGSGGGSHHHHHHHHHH
# TEST: ELISA, plate-coated mouse BCMA-His
MEASUREMENT NAME: EC50 (µg/mL)

binder="SCT-Aa18(h/h) (antibody, V domains shown, Full IgG format, chimeric: human IgG1 heavy chain constant region, human kappa light chain constant region) VH: EVQLQQSGPELVKPGASVKISCKASGYTFISYVMHWVKQKPGQGLEWIGYIIPYNDGTKYNEKFKGKATLTSDKSSSTAYMELSSLTSEDSAVYYCAKWGNWDEGTWFPYWGQGTLVTVSA VL: DVLMTQTPLSLPVSLGDQASFSCRSSQSIVHSDGNTYLEWYLQKPGQSPKLLIYKISNRFSGVPDRFSGSGSGTDFTLKISRVEAEDLGVYYCFQGSHVPWTFGGGTKLEIK" value_units=µg/mL assay_value=0.271
binder="SCT-Aa05(h/h) (antibody, V domains shown, Full IgG format, chimeric: human IgG1 heavy chain constant region, human kappa light chain constant region) VH: EVKLLQSGGGLVQPGGSLKLSCAASGIDFSRYWMSWVRRAPGKGLEWIGEINPDSSTINYAPSLKDKFIISRDNAKNTLYLQMSKVRSEDTGLYYCASLYYDYEREYGMDYWGQGTSVTVSS VL: DIVMTQSQKFMSTSVGDRVSVTCKASQNVGTNVAWYQQKPGQSPKALIYSASYRFSGVPDRFTGSGSGTDFTLTISNVQSEDLAEYFCQQYNSYPYTFGGGTKLEIK" value_units=µg/mL assay_value=0.0295
